All figures here come from patent US11680060B2.

- experimental-target: human OX2R (Homo sapiens (Human))
- Sequence (O43614 whole entry): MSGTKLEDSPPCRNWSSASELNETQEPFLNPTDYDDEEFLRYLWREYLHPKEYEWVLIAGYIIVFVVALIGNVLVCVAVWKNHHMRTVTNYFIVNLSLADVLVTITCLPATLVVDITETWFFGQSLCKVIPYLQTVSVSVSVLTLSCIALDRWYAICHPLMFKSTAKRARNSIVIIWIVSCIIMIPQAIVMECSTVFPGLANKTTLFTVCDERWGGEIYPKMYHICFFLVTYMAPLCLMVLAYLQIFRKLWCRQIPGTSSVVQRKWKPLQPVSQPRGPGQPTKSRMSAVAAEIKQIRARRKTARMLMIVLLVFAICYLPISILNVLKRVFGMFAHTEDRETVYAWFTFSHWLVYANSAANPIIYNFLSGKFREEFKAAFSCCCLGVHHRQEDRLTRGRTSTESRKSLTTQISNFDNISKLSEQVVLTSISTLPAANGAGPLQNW
- measurement-description: IPOne (IP-1) assay in CHO cells expressing human OX2R
- Type: cell-based
- recorded-conditions: CHO, percentage of mean max effect of a reference compound at 1 uM (100% activity by comparison to Orexin A), human OX2R; read-out: Emax (%)
property-name: Emax (%)
The figure you give is taken to be in %; do not add the unit.

Give Emax for COC(=O)N1[C@H](C)C[C@H](NS(C)(=O)=O)[C@@H]1COC1CCC2(c3ncc(OC(F)F)c(C)n3)CC2C1 (some centres unmarked) [Example 75] tested on human OX2R (Homo sapiens (Human)).
89.5

Give Emax for C[C@@H]1C[C@H](NS(C)(=O)=O)[C@H](CO[C@H]2CC[C@@]3(c4ncc(F)cn4)C[C@H]3C2)N1C(=O)OCC(F)F [Example 66] tested on human OX2R (Homo sapiens (Human)).
101

Give Emax for CC(C)OC(=O)N1[C@H](C)C[C@H](NS(=O)(=O)C(F)F)[C@@H]1COC1CCC2(c3ncc(F)cn3)CC2C1 (some centres unmarked) [Example 109] tested on human OX2R (Homo sapiens (Human)).
105

Continuing:
Give Emax for CCS(=O)(=O)N[C@H]1C[C@@H](C(F)F)N(C(=O)OC(C)C)[C@H]1CO[C@H]1CC[C@@]2(c3ncc(F)cn3)C[C@H]2C1 (single isomer, unassigned) [Example 118] tested on human OX2R (Homo sapiens (Human)).
100

Give Emax for COC(=O)N1[C@H](C)C[C@H](NS(C)(=O)=O)[C@@H]1CO[C@H]1CC[C@@]2(c3ncc(C)cn3)C[C@H]2C1 (single isomer, unassigned) [Example 156] tested on human OX2R (Homo sapiens (Human)).
102

----------
- experimental-target: human OX2R (Homo sapiens (Human))
- measurement-description: IPOne (IP-1) assay in CHO cells expressing human OX2R
- recorded-conditions: CHO cells expressing human OX2R; IP-One detection; 2 hours incubation; EC50 = inflection point of four parameter logistic fit; read-out: hOX2R_IP_IC50
property-name: IC50
Record the result as number plus unit.

Worked cases, answers included:
Hello, please tell me recorded IC50 for this one: CC(C)OC(=O)N1[C@H](C)C[C@H](NS(=O)(=O)CF)[C@@H]1CO[C@H]1CC[C@@]2(c3ncc(Br)cn3)C[C@H]2C1 (single isomer, unassigned) [Example 103]
4.3 nM

Hello, please tell me recorded IC50 for this one: COC(=O)N1[C@H](C)C[C@H](NS(=O)(=O)CF)[C@@H]1CO[C@H]1CC[C@@]2(c3ncc(Br)cn3)C[C@H]2C1 (single isomer, unassigned) [Example 87]
2 nM

Hello, please tell me recorded IC50 for this one: COC(=O)N1CC[C@H](NS(C)(=O)=O)[C@@H]1CO[C@@H]1CC[C@]2(c3ncccn3)C[C@@H]2C1 (single isomer, unassigned) [Example 176]
2030 nM

Continuing:
Hello, please tell me recorded IC50 for this one: CC(C)OC(=O)N1[C@H](C)C[C@H](NS(=O)(=O)CF)[C@@H]1CO[C@@H]1CC[C@]2(c3ncc(Br)cn3)C[C@@H]2C1 (single isomer, unassigned) [Example 104]
34.5 nM

Hello, please tell me recorded IC50 for this one: COC(=O)N1[C@H](C)C[C@H](NS(C)(=O)=O)[C@@H]1COC1CCC2(c3ccccc3)CC2C1 (single isomer, unassigned) [Example 2]
176 nM

Hello, please tell me recorded IC50 for this one: CC(C)OC(=O)N1[C@H](C)C[C@H](NS(=O)(=O)C(F)F)[C@@H]1CO[C@H]1CC[C@@]2(c3ncc(Cl)cn3)C[C@H]2C1 (single isomer, unassigned) [Example 81]
4.5 nM

Hello, please tell me recorded IC50 for this one: CC(C)OC(=O)N1[C@H](C)C[C@H](NS(=O)(=O)CF)[C@@H]1CO[C@@H]1CC[C@]2(c3ncc(Cl)cn3)C[C@@H]2C1 (single isomer, unassigned) [Example 96]
6.5 nM

Hello, please tell me recorded IC50 for this one: COC(=O)N1[C@H](C)C[C@H](NS(=O)(=O)C(F)F)[C@@H]1COC1CCC2(c3ncccn3)CC2C1 (mixture of isomers) [Example 67]
3.4 nM

Hello, please tell me recorded IC50 for this one: COC(=O)N1[C@H](C)C[C@H](NS(C)(=O)=O)[C@@H]1COC1CCC2(c3ncccn3)CC2C1 (single isomer, unassigned) [Example 16]
16.4 nM

Hello, please tell me recorded IC50 for this one: COC(=O)N1[C@H](C)C[C@H](NS(C)(=O)=O)[C@@H]1CO[C@@H]1CC[C@]2(c3ncccn3)C[C@@H]2C1 (single isomer, unassigned) [Example 180]
100 nM

Hello, please tell me recorded IC50 for this one: COC(=O)N1[C@H](C)C[C@H](NS(=O)(=O)CF)[C@@H]1CO[C@H]1CC[C@@]2(c3ncc(F)c(OC)n3)C[C@H]2C1 [Example 83]
7.6 nM
